TARGET DESC: T1, human GIP receptor (human, UniProt P48546 22-466)
T1 sequence (looked up): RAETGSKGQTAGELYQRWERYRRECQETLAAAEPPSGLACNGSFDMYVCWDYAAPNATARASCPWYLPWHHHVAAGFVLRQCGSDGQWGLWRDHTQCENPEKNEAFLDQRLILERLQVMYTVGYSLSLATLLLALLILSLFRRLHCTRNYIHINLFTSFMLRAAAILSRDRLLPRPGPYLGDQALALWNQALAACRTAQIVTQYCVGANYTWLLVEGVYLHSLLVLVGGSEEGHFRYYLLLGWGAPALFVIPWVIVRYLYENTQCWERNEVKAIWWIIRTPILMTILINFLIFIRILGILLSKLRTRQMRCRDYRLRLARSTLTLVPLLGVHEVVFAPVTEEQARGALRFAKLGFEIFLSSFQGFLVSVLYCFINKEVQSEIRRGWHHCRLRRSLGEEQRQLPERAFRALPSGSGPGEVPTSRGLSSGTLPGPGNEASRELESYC
MEASUREMENT DESCRIPTION: cell-based or functional assay
RESULT TYPE: cAMP EC50 (nM)
Quick reminder: number only, in nM, skip the unit.

Record excerpt, results attached:
IP272 (Fc fusion) YSEGTFTSDYSKLLEEEAVRLFIEWLLAQKAPPGGSGSTASSGSGSATGGGGAATHTCPPC :: 0.011
IP379 (Fc fusion) YSEGTHTSDFSKLLEEEAVRLFIEWLLAGGGGGGSGGGGSGGGGSGGGGSATHTCPPC :: 0.0038
IP229 (Fc fusion) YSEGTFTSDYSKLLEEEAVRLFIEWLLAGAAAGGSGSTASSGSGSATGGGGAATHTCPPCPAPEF :: 0.0062

Return reported cAMP EC50. Input binder: IP267 (Fc fusion) YSEGTFTSDYSKLLEEEHVRLFIEWLVKGPGGGGGSGGGGSGGGGSGGGGSATHTCPPC
0.12
